- TARGET SYSTEM: Cathepsin K (Homo sapiens, UniProt P43235)
- Sequence (P43235 whole entry): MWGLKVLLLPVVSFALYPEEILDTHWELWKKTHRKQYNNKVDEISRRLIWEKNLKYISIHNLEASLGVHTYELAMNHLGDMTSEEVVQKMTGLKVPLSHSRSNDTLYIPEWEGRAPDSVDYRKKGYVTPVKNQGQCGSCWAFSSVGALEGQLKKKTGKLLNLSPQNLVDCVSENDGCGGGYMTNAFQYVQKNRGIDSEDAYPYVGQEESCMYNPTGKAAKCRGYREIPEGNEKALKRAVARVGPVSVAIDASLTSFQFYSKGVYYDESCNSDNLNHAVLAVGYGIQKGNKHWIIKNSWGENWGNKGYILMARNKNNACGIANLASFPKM
- PROCEDURE TEXT: Inhibitory activity against Cathepsin K
MEASUREMENT NAME: pIC50
// returns pIC50 (minus log10 of molar concentration), number only

response.value for CC(C)[C@@H](/C=C/c1ccccc1)NC(=O)[C@@H]1CCCCN1CC(=O)c1ccccc1 (field: pIC50) = 6.11

====

- TARGET SYSTEM: Cathepsin K (Homo sapiens)
- PROCEDURE TEXT: Inhibitory activity against Cathepsin K
MEASUREMENT NAME: pKi
// returns pKi (minus log10 of molar concentration), number only

response.value for CC(C)C[C@H](NC(=O)OCc1ccccc1)C(=O)NC1CN(C(=O)[C@H](CC(C)C)NC(=O)OCc2ccccc2)CC1=O (stereo partly specified) (field: pKi) = 8.70

====

- TARGET SYSTEM: Cathepsin K (Homo sapiens)
- PROCEDURE TEXT: Inhibitory activity against cathepsin K
- Design: concentration or dose not given beside the values
- RUN PARAMETERS: concentration not given here
MEASUREMENT NAME: inhibition (%)
Report the value in % with no unit label.

response.value for CC[C@H](C)[C@H](NC(=O)[C@@H]1CCCCN1CC(=O)c1ccccc1)C(=O)Nc1ccccc1 (field: inhibition) = 8

response.value for COc1cc(C(=O)CN2CCCC[C@H]2C(=O)N[C@H](/C=C/c2ccccc2)Cc2ccccc2)cc(OC)c1OC (field: inhibition) = 20

response.value for O=C(CN1CCCC[C@H]1C(=O)Nc1cccc(-c2ccccc2)c1)c1ccccc1 (field: inhibition) = 2

response.value for CC[C@H](C)[C@@H](/C=C/c1ccccc1)NC(=O)[C@@H]1CCCCN1CC(=O)c1ccc(NC(C)=O)cc1 (field: inhibition) = 42
